Where these numbers come from: paper PMC4780864

# system tested: GAK (Homo sapiens)
# Construct: catalytic domain-containing construct
# Sequence (O14976 whole entry, the tested form may be a part): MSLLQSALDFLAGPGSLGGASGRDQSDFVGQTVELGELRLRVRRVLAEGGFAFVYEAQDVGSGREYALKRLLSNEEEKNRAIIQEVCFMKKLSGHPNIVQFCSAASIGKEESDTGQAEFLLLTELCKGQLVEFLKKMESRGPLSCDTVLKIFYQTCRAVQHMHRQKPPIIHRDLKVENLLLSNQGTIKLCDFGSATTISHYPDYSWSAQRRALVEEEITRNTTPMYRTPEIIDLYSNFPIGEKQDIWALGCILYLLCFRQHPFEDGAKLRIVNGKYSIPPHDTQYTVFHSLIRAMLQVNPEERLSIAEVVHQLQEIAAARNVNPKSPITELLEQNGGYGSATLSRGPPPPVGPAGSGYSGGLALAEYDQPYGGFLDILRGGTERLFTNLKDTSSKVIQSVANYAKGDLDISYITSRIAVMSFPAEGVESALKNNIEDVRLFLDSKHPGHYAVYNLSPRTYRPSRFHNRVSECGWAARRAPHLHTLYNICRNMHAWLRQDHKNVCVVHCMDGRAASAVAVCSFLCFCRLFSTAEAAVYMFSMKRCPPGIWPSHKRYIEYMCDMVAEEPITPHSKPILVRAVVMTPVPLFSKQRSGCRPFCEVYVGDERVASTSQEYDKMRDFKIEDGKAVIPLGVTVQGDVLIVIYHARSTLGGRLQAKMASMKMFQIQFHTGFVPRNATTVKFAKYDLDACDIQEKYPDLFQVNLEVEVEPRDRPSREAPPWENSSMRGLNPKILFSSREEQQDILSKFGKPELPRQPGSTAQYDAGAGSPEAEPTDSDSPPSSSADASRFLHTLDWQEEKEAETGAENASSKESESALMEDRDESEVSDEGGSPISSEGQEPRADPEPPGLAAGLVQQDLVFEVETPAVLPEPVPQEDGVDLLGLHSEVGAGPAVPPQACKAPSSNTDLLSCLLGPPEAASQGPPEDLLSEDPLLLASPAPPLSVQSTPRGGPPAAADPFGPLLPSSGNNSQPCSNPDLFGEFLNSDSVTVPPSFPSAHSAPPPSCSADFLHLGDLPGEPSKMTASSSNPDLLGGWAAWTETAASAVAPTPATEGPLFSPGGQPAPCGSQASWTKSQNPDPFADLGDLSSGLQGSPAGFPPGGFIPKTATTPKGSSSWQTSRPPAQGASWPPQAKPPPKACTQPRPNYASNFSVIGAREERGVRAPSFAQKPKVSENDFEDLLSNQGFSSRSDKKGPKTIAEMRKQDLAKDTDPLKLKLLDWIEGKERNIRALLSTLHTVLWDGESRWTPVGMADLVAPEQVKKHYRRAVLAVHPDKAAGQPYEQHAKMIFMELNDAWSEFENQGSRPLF
# procedure summary: biochemical
# Set-up: Thermal shift assay (DSF, SYPRO Orange), 2 uM kinase domain, mean delta Tm of triplicates versus DMSO
# measurement setup: read-out: GAK
Just a reminder that ties go to n: only ΔTm at 12.5 µM strictly below 2 °C counts as y.

molecule | class
O=C(O)c1ccc(-c2c[nH]c3ncc(-c4ccccc4)cc23)cc1C1CCCC1 [GSK650394] | n
CC[C@@H]1C(=O)N(C)c2cnc(Nc3ccc(C(=O)NC4CCN(C)CC4)cc3OC)nc2N1C1CCCC1 [BI 2536] | n
Cc1nc(NC(=O)N2CCC[C@H]2C(N)=O)sc1-c1ccnc(C(C)(C)C(F)(F)F)c1 [BYL719] | n
CC(C)Oc1cc(Nc2nc(N[C@@H](C)c3ccc(F)cn3)ncc2Cl)n[nH]1 [AZ23] | n
Cc1ccc(NC(=O)c2ccc(CN3CC[C@H](N(C)C)C3)c(C(F)(F)F)c2)cc1Nc1nccc(-c2cncnc2)n1 [Bafetinib] | n
CN1CCC(CNc2ccc3ncc(-c4cccc(OC(F)(F)F)c4)n3n2)CC1 [SGI-1776] | n
Cc1cc(Nc2nc(N[C@@H](C)c3ncc(F)cn3)ncc2Cl)[nH]n1 [AZD1480] | y
Cc1ccc(F)c(NC(=O)Nc2ccc(-c3cccc4[nH]nc(N)c34)cc2)c1 [Linifanib] | n
Cn1cnc2c(F)c(Nc3ccc(Br)cc3Cl)c(C(=O)NOCCO)cc21 [Selumetinib] | y
CC(C)n1nc(-c2ccc3oc(N)nc3c2)c2c(N)ncnc21 [INK128] | y
COC(=O)c1ccc2c(c1)NC(=O)/C2=C(\Nc1ccc(N(C)C(=O)CN2CCN(C)CC2)cc1)c1ccccc1 [nintedanib] | y

###

# system tested: MPSK1 (Homo sapiens, UniProt O75716)
# Construct: gene STK16; catalytic domain-containing construct
# Sequence (O75716 whole entry, the tested form may be a part): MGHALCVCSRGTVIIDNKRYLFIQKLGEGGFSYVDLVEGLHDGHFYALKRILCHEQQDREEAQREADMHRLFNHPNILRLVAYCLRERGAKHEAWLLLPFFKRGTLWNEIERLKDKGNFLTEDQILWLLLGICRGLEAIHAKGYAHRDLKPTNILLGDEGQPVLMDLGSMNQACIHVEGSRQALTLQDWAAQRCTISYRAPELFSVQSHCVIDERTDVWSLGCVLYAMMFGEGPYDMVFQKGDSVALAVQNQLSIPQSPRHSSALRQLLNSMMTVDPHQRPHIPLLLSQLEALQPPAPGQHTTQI
# procedure summary: biochemical
# Set-up: Thermal shift assay (DSF, SYPRO Orange), 2 uM kinase domain, mean delta Tm of triplicates versus DMSO
# measurement setup: read-out: MPSK1
We use 4 °C as the dividing line for ΔTm at 12.5 µM: on or above the line is Met, below is Not met.

chem smiles | system tested | class
CCN(CCO)CCCOc1ccc2c(Nc3cc(CC(=O)Nc4cccc(F)c4)[nH]n3)ncnc2c1 | MPSK1 (Homo sapiens, UniProt O75716) | Not met
CN1CCC(CNc2ccc3ncc(-c4cccc(OC(F)(F)F)c4)n3n2)CC1 | MPSK1 (Homo sapiens, UniProt O75716) | Not met
N#CCNC(=O)c1ccc(-c2ccnc(Nc3ccc(N4CCOCC4)cc3)n2)cc1 | MPSK1 (Homo sapiens, UniProt O75716) | Met
CN[C@@H]1C[C@H]2O[C@@](C)([C@@H]1OC)n1c3ccccc3c3c4c(c5c6ccccc6n2c5c31)C(=O)N[C@H]4O | MPSK1 (Homo sapiens, UniProt O75716) | Met
COc1cc(N2CCC(N3CCN(C)CC3)CC2)ccc1Nc1ncnc(Nc2ccccc2S(=O)(=O)C(C)C)n1 | MPSK1 (Homo sapiens, UniProt O75716) | Not met
C[C@]12O[C@H](C[C@]1(O)CO)n1c3ccccc3c3c4c(c5c6ccccc6n2c5c31)CNC4=O | MPSK1 (Homo sapiens, UniProt O75716) | Met
Cc1nc(Nc2n[nH]c3c2CN(C(=O)N[C@H](CN(C)C)c2ccccc2)C3(C)C)c2sccc2n1 | MPSK1 (Homo sapiens, UniProt O75716) | Met
C=CCN(/C=C1/C(=O)O[C@H](COC)[C@@]2(C)C1=C(O)C(=O)C1=C2[C@H](OC(C)=O)C[C@]2(C)C(=O)CC[C@@H]12)CC=C | MPSK1 (Homo sapiens, UniProt O75716) | Not met
